# TARGET OR SYSTEM: RORγ (UniProt P51449)
# ASSAY PROCEDURE: RORγ Gal4 Reporter Gene Assay in 293T cells (firefly and renilla luciferase)
# Type: cell-based, human
# RUN PARAMETERS: second value of the cell; Gal4 reporter gene assay in 293T cells, firefly luciferase
TEST READOUT: pIC50 (FF)

| COMPOUND | RECORDED VALUE |
| --- | --- |
| Cc1c(C(=O)N[C@H]2C[C@H](C(=O)O)C2)cc(-c2ccc(S(=O)(=O)NC(C)(C)C)c3c(F)cccc23)n1CC1CCCCC1 [17/364] | 6.9 |
| Cc1c(S(=O)(=O)NC(C)(C)C)ccc(-c2cc(C(=O)N[C@H]3C[C@H](C(=O)O)C3)c(C)n2CC2CCCCC2)c1Cl [17/275] | 7.0 |
| Cc1c(C(=O)NCC2COC2)cc(-c2cc(C(C)(C)C)c3c(c2)C2(CCO3)CC2)n1CC1CCCCC1 [1/100] | 7.2 |
| Cc1c(C(=O)N[C@H]2CCOC2)cc(-c2cc(C(C)(C)C)c3c(c2)C2(CCO3)CC2)n1CC1CCCCC1 [1/95] | 7.0 |
| Cc1c(C(=O)NC2COC2)cc(-c2ccc(C(=O)NC(C)(C)C)c(C(C)(C)C)c2)n1CC1CCCCC1 [1/30] | 6.4 |
| Cc1c(C(=O)NCCS(C)(=O)=O)cc(-c2cc(C(C)(C)O)cc(C3(C)CC3)c2)n1CC1CCCCC1 [17/317] | 6.5 |
| Cc1c(C(=O)NC2CC2)cc(-c2ccc(S(=O)(=O)NC(C)(C)C)c(C(C)(C)C)c2)n1CC1CCCCC1 [17/99] | 6.9 |
| Cc1c(C(=O)NC2CCS(=O)(=O)CC2)cc(-c2cc(C(C)(C)O)cc(C3(C)CC3)c2)n1CC1CCCCC1 [17/321] | 7.3 |

###

# TARGET OR SYSTEM: RORγ ligand binding domain (LBD) (Homo sapiens, UniProt P51449)
# Construct: made in house; host or cells: E. coli BL-21 (BL3), vector pDEST15
# Sequence (P51449 269-508 limits assumed): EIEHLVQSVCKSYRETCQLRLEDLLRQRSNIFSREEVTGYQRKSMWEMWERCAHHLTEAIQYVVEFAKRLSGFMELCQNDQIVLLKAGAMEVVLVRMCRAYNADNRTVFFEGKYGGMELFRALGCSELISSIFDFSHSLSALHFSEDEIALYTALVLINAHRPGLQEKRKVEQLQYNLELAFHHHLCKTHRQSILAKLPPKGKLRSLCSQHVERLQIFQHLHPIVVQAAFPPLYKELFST
# ASSAY PROCEDURE: TR-FRET Activity Assay (ligand sensing, RORγ-LBD / coactivator peptide interaction, LANCE)
# Assay type: biochemical
TEST READOUT: pIC50
Remember the convention: pIC50 equals -log10 of concentration in molar.

Sample answers from the record:
| STRUCTURE AS SMILES | RECORDED VALUE |
| --- | --- |
| Cc1c(C(=O)NC2CCOCC2)cc(-c2ccc(C(=O)NCC3CCCCC3)c(C(C)(C)C)c2)n1CC1CCCCC1 | 6.00 |
| COC(C)(C)c1cc(-c2cc(C(=O)NC3CCOCC3)c(C)n2CC2CCCCC2)cc2c1OCCC21CC1 | 5.60 |
| Cc1c(C(=O)NC2COC2)cc(-c2cc(C(=O)NC(C)(C)C)nc(C(C)(C)C)c2)n1CC1CCCCC1 | 6.20 |
| Cc1c(C(=O)NC2CCOCC2)cc(-c2cc(C(C)(C)O)cc3ccccc23)n1CC1CCCCC1 | 6.30 |
| Cc1c(C(=O)NCCCCCO)cc(-c2cc(C(C)(C)C)c3c(c2)C2(CCO3)CC2)n1CC1CCCCC1 | 6.60 |
| Cc1c(C(=O)NCC2CCS(=O)(=O)CC2)cc(-c2cc(C(C)(C)C)c3c(c2)C2(CCO3)CC2)n1CC1CCCCC1 | 6.40 |

Then this compound:
Name the recorded pIC50 of the compound listed here: COC(C)(C)c1cc(C(=O)NC(C)(C)C)cc(-c2cc(C(=O)NC3CCOCC3)c(C)n2CC2CCCCC2)c1
5.50
